assay: clinical; details: human, in vivo, po, Human blood level, 5 h; subject D; single oral dose 500 mg D,L-lysine salt (Table 5) or equivalent 300 mg sodium salt (Table 6); serum, as free acid
property measured: concentration at 5 h (ng/mL)
Quick reminder: number only, in ng/mL, skip the unit.

Prompt line: Request the reported concentration at 5 h associated with CC(C)Cc1ccc(C(C)C(=O)[O-])cc1.[Na+] (stereo not shown)
Response line: 6900

* * *

experiment: clinical; conditions: human, in vivo, po, Human blood level, 4 h; subject E; single oral dose 500 mg D,L-lysine salt (Table 5) or equivalent 300 mg sodium salt (Table 6); serum, as free acid
property measured: concentration at 4 h (ng/mL)
Write down the numeric answer in ng/mL and omit the unit.

Prompt line: Give the measured concentration at 4 h of CC(C)Cc1ccc(C(C)C(=O)[O-])cc1.[Na+] (stereo not shown) .
Response line: 7000

* * *

assay: clinical; settings: human, in vivo, po, Human blood level, mean, 4 h; single oral dose 500 mg D,L-lysine salt (Table 5) or equivalent 300 mg sodium salt (Table 6); serum, as free acid
property measured: concentration at 4 h (ng/mL)
Report only the number, with the unit ng/mL understood.

Prompt line: Need concentration at 4 h, item CC(C)Cc1ccc(C(C)C(=O)[O-])cc1.[Na+] (stereo not shown)
Response line: 7800

* * *

experiment: clinical; conditions: human, in vivo, po, Human blood level, mean, 2 h; single oral dose 500 mg D,L-lysine salt (Table 5) or equivalent 300 mg sodium salt (Table 6); serum, as free acid
property measured: concentration at 2 h
Please format your answer as a value with the unit trailing.

Prompt line: Given the compound CC(C)Cc1ccc(C(C)C(=O)[O-])cc1.[Na+] (stereo not shown) , what is its reported concentration at 2 h?
Response line: 12700 ng/mL

* * *

experiment: clinical; settings: human, in vivo, po, Human blood level, mean, 5 h; single oral dose 500 mg D,L-lysine salt (Table 5) or equivalent 300 mg sodium salt (Table 6); serum, as free acid
property measured: concentration at 5 h (ng/mL)
Report the figure in ng/mL without appending any unit label.

Prompt line: GET /values?readout=concentration at 5 h&item= CC(C)Cc1ccc(C(C)C(=O)[O-])cc1.[Na+] (stereo not shown)
Response line: 5400

* * *

assay: clinical; conditions: human, in vivo, po, Human blood level, 5 h; subject E; single oral dose 500 mg D,L-lysine salt (Table 5) or equivalent 300 mg sodium salt (Table 6); serum, as free acid
property measured: concentration at 5 h (µg/mL)
State just the number; it will be interpreted in µg/mL.

Prompt line: Need concentration at 5 h of CC(C)Cc1ccc(C(C)C(=O)[O-])cc1.[Na+] (stereo not shown) , thanks.
Response line: 5.3

* * *

assay: clinical; conditions: human, in vivo, po, Human blood level, 4 h; subject A; single oral dose 500 mg D,L-lysine salt (Table 5) or equivalent 300 mg sodium salt (Table 6); serum, as free acid
property measured: concentration at 4 h (ng/mL)
Respond with the bare value in ng/mL.

Prompt line: Quick one: concentration at 4 h for CC(C)Cc1ccc(C(C)C(=O)[O-])cc1.[Na+] (stereo not shown) ?
Response line: 4200

* * *

test: clinical; details: human, in vivo, po, Human blood level, 4 h; subject C; single oral dose 500 mg D,L-lysine salt (Table 5) or equivalent 300 mg sodium salt (Table 6); serum, as free acid
property measured: concentration at 4 h (ng/mL)
Report the value in ng/mL with no unit label.

Prompt line: I am curious: what concentration at 4 h value has been reported for CC(C)Cc1ccc(C(C)C(=O)[O-])cc1.[Na+] (stereo not shown) ?
Response line: 9600

* * *

assay: clinical; conditions: human, in vivo, po, Human blood level, 3 h; subject E; single oral dose 500 mg D,L-lysine salt (Table 5) or equivalent 300 mg sodium salt (Table 6); serum, as free acid
property measured: concentration at 3 h (ng/mL)
Just the number please, in ng/mL, no unit attached.

Prompt line: Any idea what its concentration at 3 h is? The compound is CC(C)Cc1ccc(C(C)C(=O)[O-])cc1.[Na+] (stereo not shown)
Response line: 9600

* * *

experiment: Solubility; format: physicochemical; settings: in water
property measured: solubility

Prompt line: For CC(C)Cc1ccc(C(C)C(=O)O)cc1 (racemic) , what is its reported solubility?
Response line: ~400 mg/mL

* * *

assay: clinical; details: human, in vivo, po, Human blood level, 3 h; subject D; single oral dose 500 mg D,L-lysine salt (Table 5) or equivalent 300 mg sodium salt (Table 6); serum, as free acid
property measured: concentration at 3 h (ng/mL)
State the answer as a number, implicitly in ng/mL.

Prompt line: Form field: reported concentration at 3 h of CC(C)Cc1ccc(C(C)C(=O)[O-])cc1.[Na+] (stereo not shown)
Response line: 13600

* * *

assay: clinical; conditions: human, in vivo, po, Human blood level, 1 h; subject B; single oral dose 500 mg D,L-lysine salt (Table 5) or equivalent 300 mg sodium salt (Table 6); serum, as free acid
property measured: concentration at 1 h (ng/mL)
Give the value, in units of ng/mL, as a plain number.

Prompt line: Item CC(C)Cc1ccc(C(C)C(=O)[O-])cc1.[Na+] (stereo not shown) has what recorded concentration at 1 h?
Response line: 16600

* * *

test: clinical; details: human, in vivo, po, Human blood level, 1.5 h; subject E; single oral dose 500 mg D,L-lysine salt (Table 5) or equivalent 300 mg sodium salt (Table 6); serum, as free acid
property measured: concentration at 1.5 h

Prompt line: Which value of concentration at 1.5 h has been reported for CC(C)Cc1ccc(C(C)C(=O)[O-])cc1.[Na+] (stereo not shown) in the records?
Response line: 8700 ng/mL

* * *

test: clinical; conditions: human, in vivo, po, Human blood level, 0.5 h; subject B; single oral dose 500 mg D,L-lysine salt (Table 5) or equivalent 300 mg sodium salt (Table 6); serum, as free acid
property measured: concentration at 0.5 h (ng/mL)
Return type: number; implicit unit ng/mL.

Prompt line: I am curious: what concentration at 0.5 h value has been reported for CC(C)Cc1ccc(C(C)C(=O)[O-])cc1.[Na+] (stereo not shown) ?
Response line: 10500

* * *

experiment: clinical; settings: human, in vivo, po, Human blood level, 5 h; subject A; single oral dose 500 mg D,L-lysine salt (Table 5) or equivalent 300 mg sodium salt (Table 6); serum, as free acid
property measured: concentration at 5 h (ng/mL)
Number in ng/mL, nothing else.

Prompt line: Suppose we examine the compound CC(C)Cc1ccc(C(C)C(=O)[O-])cc1.[Na+] (stereo not shown) ; what concentration at 5 h value has been reported?
Response line: 6300

* * *

test: pH of aqueous solution; assay type: physicochemical
property measured: pH of aqueous solution

CC(C)Cc1ccc(C(C)C(=O)O)cc1 (racemic) [Example 8] = pH close to neutrality
CC(C)Cc1ccc(CC(=O)O)cc1 = pH close to neutrality

* * *

experiment: clinical; settings: human, in vivo, po, Human blood level, 1.5 h; subject B; single oral dose 500 mg D,L-lysine salt (Table 5) or equivalent 300 mg sodium salt (Table 6); serum, as free acid
property measured: concentration at 1.5 h (ng/mL)
# output: bare number, implied unit ng/mL

Prompt line: Could you share which concentration at 1.5 h value was measured for CC(C)Cc1ccc(C(C)C(=O)[O-])cc1.[Na+] (stereo not shown) ?
Response line: 11000

* * *

test: clinical; conditions: human, in vivo, po, Human blood level, 2 h; subject E; single oral dose 500 mg D,L-lysine salt (Table 5) or equivalent 300 mg sodium salt (Table 6); serum, as free acid
property measured: concentration at 2 h (ng/mL)
Record the value in ng/mL, omitting the unit from your answer.

Prompt line: Name the reported concentration at 2 h value associated with the compound CC(C)Cc1ccc(C(C)C(=O)[O-])cc1.[Na+] (stereo not shown)
Response line: 7900

* * *

assay: clinical; conditions: human, in vivo, po, Human blood level, 3 h; subject C; single oral dose 500 mg D,L-lysine salt (Table 5) or equivalent 300 mg sodium salt (Table 6); serum, as free acid
property measured: concentration at 3 h (ng/mL)
All answers are understood in ng/mL, so give the number only.

Prompt line: I have this compound here, CC(C)Cc1ccc(C(C)C(=O)[O-])cc1.[Na+] (stereo not shown) , and I need its recorded concentration at 3 h.
Response line: 8700

* * *

experiment: clinical; details: human, in vivo, po, Human blood level, 1 h; subject C; single oral dose 500 mg D,L-lysine salt (Table 5) or equivalent 300 mg sodium salt (Table 6); serum, as free acid
property measured: concentration at 1 h (ng/mL)
Answer format: numeric, ng/mL implied, no suffix.

Prompt line: Value lookup for concentration at 1 h; key = CC(C)Cc1ccc(C(C)C(=O)[O-])cc1.[Na+] (stereo not shown)
Response line: 4500

* * *

assay: clinical; conditions: human, in vivo, po, Human blood level, 3 h; subject B; single oral dose 500 mg D,L-lysine salt (Table 5) or equivalent 300 mg sodium salt (Table 6); serum, as free acid
property measured: concentration at 3 h (ng/mL)
Could you give me the number in ng/mL? Just the number is fine.

Prompt line: Field request: concentration at 3 h | item: CC(C)Cc1ccc(C(C)C(=O)[O-])cc1.[Na+] (stereo not shown)
Response line: 3000
